Data credit: paper PMC6736568

Below, each entry is listed with its recorded cytotoxicity at 10 µM.
Assay: in vitro
# unit: % | format: bare number

Take a look at these entries with their results.
line notation	value kind	unit label	recorded measurement
CC(=O)Oc1ccc(/C=C/c2cc(OC(C)=O)cc(OC(C)=O)c2)cc1	cytotoxicity at 10 µM	%	12.4
CC1=C2C(=CO[C@H](C)[C@H]2C)C(O)=C(C(=O)O)C1=O	cytotoxicity at 10 µM	%	8.3
COc1cc(O)c2c(=O)c(OC)c(-c3ccc(OC)c(OC)c3)oc2c1	cytotoxicity at 10 µM	%	17

Switching to the query record.
[in] Give cytotoxicity at 10 µM for the following compound: "C=C(C)[C@H]1Cc2c(ccc3c2O[C@@H]2COc4cc(OC)c(OC)cc4[C@@H]2C3=O)O1"
[out] 57.8
